# Tested on: SK-MEL-5
# procedure_summary: NCI tumour cell line growth inhibition, 48 h
Active and inactive are the calls of the source. Cut-off read from the data, not from the text of the source: active = GI50 up to about 1.1 µM and inactive = higher.
test_readout: GI50

Form: Entry = CC1(C)O[C@@H]([C@@H](O)[C@H](O)C2SCCCS2)[C@@H](CO)O1 | System = SK-MEL-5 | GI50 = ____ > 100 µM (inactive)

SK-MEL-5 / GI50 / COC1(OC)CCCc2c1no[n+]2[O-] : value? > 100 µM (inactive)

Please tell me: GI50 of c1cnc2c(c1)-n1cccc1C1(CCCCC1)NN2 , system SK-MEL-5? 71.3 µM (inactive)

Item: CCOC(=O)[C@@H]1CCN2CN(c3ccc(OC)cc3)N=C(c3ccccc3)[C@@]12c1ccccc1 Test system: SK-MEL-5 Read-out: GI50 Value: ? 13.2 µM (inactive)

State its GI50 on SK-MEL-5: COc1ccc(C[C@@H](C(=O)O[C@H](C)[C@H](NC(=O)[C@@H](CC(C)C)N(C)C(=O)C2CCCN2C(=O)[C@H](C)O)C(=O)N2CCCCNC(=O)[C@@H](C)C(=O)[C@H](C(C)C)OC(=O)C[C@H](O)[C@H]2CC(C)C)N(C)C(C)=O)cc1 (some centres undefined) 3.95 µM (inactive)

Recall the recorded GI50 for Cc1ccc(S(=O)(=O)N/N=C2\CCC3(O)CC2(C)CCC2C3CC2(C)C)cc1 (centres undefined) with SK-MEL-5 and state it. 35.6 µM (inactive)

Provide value of GI50 for this record tested with SK-MEL-5: C[N+](C)=C/C=C(\Cl)c1ccc2ccccc2c1 18.1 µM (inactive)

// lookup GI50 | system=SK-MEL-5 | key= CCCCc1ccc(Nc2nc(Cl)c3c(ncn3C3CC(Oc4ccc(C)cc4)C(COc4ccc(C)cc4)O3)n2)cc1 (centres undefined) > 100 µM (inactive)

Record O=C(OCc1ccccc1)C(Cc1ccccc1)N(Cc1ccccc1)Cc1ccccc1 (centres undefined) : what is its GI50 with SK-MEL-5? 5.94 µM (inactive)

====

Consider the following compounds; for each one, report its GI50.
# System: MDA-N
# procedure_summary: NCI tumour cell line growth inhibition, 48 h
Calls of active or inactive are those of the source. Cut-off read from the data, not from the text of the source: active = GI50 up to about 1.1 µM and inactive = higher.

Tell me the measured GI50 of O=C1C=Cc2c1csc2Br , please. 50 µM (inactive)

Item under review: COC(=O)c1ccc(C)cc1CC1Cc2ccc(C)cc2C1=O (stereo unspecified) . Reported GI50? 1.75 µM (inactive)

# GI50 lookup, item Cn1c2ccccc2c(=O)c2cccc(C(=O)NC(CCC(N)=O)C(=O)O)c21 (stereo unspecified) > 100 µM (inactive)

I'd like to know its GI50. The compound in question is OC(CN1CCCCC1)c1ccc(/C=C/c2ccc(Cl)cc2)cc1 (stereo unspecified) 56.9 µM (inactive)

Give its GI50 value. Item: O=C(NCCCN(CCCCN(CCCNC(=O)C(F)(F)F)Cc1ccccc1)Cc1ccccc1)C(F)(F)F 15.7 µM (inactive)

Could you share which GI50 value was measured for Cc1cc(C23OC4COC(C)(C)OC4C2OC(C)(C)O3)nc2ccccc12 (stereo unspecified) ? > 100 µM (inactive)

What value of GI50 has been reported for the following compound? COc1ccc(Cc2c(-c3ccc(C)cc3)n[nH]c(=O)c2C2C(=O)N(c3ccccc3)N=C2c2ccccc2)cc1 (stereo unspecified) 24.4 µM (inactive)

Can you share its GI50? I mean this compound: CCCS(=O)OC1C(C2COC(C)(C)O2)OC2OC(C)(C)OC21 (stereo unspecified) 15.1 µM (inactive)

What GI50 value was documented for this compound, Nc1nc(SCCc2ccccc2)c2nc[nH]c2n1 ? 55.7 µM (inactive)

Look up GI50: CN(C)c1nc(N(C)C)nc(N(C)C)n1 [ALTRETAMINE] > 150 µM (inactive)

// query GI50 value for entry N#Cc1nc(NC(=O)c2ccccc2)sc1N > 10 µM (inactive)
